- protocol.description: Inhibition of c-terminally truncated N-terminal 8xHis-tagged human Bcl-xL deletion mutant expressed in Escherichia coli BL21 (DE3) after 2 hrs by fluorescence polarization assay
quantity: IC50 (nM)

[[record]]
input_smiles = "Cc1c(C(=O)O)c(-c2cccc(N3CCN(c4ccc(NS(=O)(=O)c5ccc(N[C@H](CCN6CCOCC6)CSc6ccccc6)c(S(=O)(=O)C(F)(F)F)c5)cc4)CC3)c2)c(-c2ccc(Cl)cc2)n1C"
quantity = "IC50"
unit_annotation = "nM"
recorded_number = 10.8


a. COc1cccc(S(=O)(=O)Nc2ccc(N3CCN(c4cccc(-c5c(C(=O)NCCCN6CCN(C)CC6)c(C)n(C)c5-c5ccc(Cl)cc5)c4)CC3)cc2)c1
b. Cc1c(C(=O)NCCCN2CCN(C)CC2)c(-c2cccc(N3CCN(c4ccc(NS(=O)(=O)c5cccc([N+](=O)[O-])c5)cc4)CC3)c2)c(-c2ccc(Cl)cc2)n1C
Problem: Smaller IC50 value, a vs b ? Write down the label of the entry you select.
Result: b
(b: 131 nM, a: 2160 nM)

The origin of these recorded values is ChEMBL document CHEMBL2169845.
